Assign IC50 to each entry below.
test.target: Phosphatidylinositol 4,5-bisphosphate 3-kinase catalytic subunit gamma isoform (Homo sapiens)
Sequence (P48736 whole entry, canonical isoform): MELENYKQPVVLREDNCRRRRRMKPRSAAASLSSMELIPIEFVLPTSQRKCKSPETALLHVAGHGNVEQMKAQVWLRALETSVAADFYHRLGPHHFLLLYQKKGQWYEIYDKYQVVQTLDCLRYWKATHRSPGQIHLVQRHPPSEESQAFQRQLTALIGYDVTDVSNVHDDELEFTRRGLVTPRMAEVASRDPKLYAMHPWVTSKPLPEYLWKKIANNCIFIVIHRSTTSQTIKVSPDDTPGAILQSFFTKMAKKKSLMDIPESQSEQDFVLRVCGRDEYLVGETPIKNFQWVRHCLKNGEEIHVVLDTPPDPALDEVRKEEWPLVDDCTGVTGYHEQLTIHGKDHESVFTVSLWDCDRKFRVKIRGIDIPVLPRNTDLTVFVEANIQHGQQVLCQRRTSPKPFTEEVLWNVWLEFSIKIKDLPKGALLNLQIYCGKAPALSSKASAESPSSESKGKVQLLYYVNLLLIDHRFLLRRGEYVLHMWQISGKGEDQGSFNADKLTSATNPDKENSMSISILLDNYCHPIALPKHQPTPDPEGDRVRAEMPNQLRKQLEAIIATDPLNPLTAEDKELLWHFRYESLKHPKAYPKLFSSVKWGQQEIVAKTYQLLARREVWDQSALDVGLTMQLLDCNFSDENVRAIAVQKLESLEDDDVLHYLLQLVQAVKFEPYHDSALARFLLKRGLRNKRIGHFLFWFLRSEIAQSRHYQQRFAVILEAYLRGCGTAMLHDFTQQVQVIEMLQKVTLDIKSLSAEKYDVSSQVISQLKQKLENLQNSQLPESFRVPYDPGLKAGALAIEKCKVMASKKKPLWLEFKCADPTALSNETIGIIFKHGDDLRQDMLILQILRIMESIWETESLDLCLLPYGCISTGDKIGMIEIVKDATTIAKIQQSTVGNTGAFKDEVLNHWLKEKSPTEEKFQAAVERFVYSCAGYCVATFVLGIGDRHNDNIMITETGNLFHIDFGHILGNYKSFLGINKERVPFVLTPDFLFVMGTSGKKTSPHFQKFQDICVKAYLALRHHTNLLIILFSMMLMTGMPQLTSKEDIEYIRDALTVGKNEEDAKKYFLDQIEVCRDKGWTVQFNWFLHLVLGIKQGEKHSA
protocol.summary: Inhibition of P110gamma (unknown origin) using PI or PIP2:PS as substrate measured for 15 to 60 mins by TR-FRET analysis
Number only, in µM; omit the unit.

Enquiry: Which IC50 value is on record for "C[C@@H]1CCN(C(=O)Nc2nc3c(s2)-c2cc(C(C)(C)C(F)(F)F)ncc2OC3)[C@@H]1C(N)=O" ?
Return: 0.2

Enquiry: "Cc1nc(NC(=O)N2CC[C@@H](C)[C@H]2C(N)=O)sc1-c1ccnc(C(C)(C)C(F)(F)F)c1" , same question.
Return: 0.23
